Target: alpha2B receptor (Homo sapiens, UniProt P18089)
Construct: expressed in transfected cells; host or cells: NIH-3T3
Sequence (P18089 whole entry): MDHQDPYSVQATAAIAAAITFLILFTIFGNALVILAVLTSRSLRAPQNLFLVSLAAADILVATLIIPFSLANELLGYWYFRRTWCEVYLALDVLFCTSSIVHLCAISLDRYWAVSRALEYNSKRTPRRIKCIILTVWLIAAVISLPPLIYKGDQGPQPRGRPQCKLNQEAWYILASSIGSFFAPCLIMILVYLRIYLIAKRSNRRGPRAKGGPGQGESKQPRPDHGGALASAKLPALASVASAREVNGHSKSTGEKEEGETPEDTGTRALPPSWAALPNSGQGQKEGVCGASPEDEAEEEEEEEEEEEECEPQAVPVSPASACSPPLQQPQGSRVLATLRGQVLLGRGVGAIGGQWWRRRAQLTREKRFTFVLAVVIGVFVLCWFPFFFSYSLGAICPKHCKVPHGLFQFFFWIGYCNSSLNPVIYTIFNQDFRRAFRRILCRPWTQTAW
Assay: Receptor Selection and Amplification Technology (RSAT) assay, alpha2B
Type: cell-based
Details: ratio of maximal effect of the drug to maximal effect of standard full agonist brimonidine (UK14304)
METRIC NAME: Alpha 2B IA (intrinsic activity)

Solved entries (count: 3):
In [3]: df
Out[3]:
                                   compound  measurement
0  O=C(NCCF)NC1CCCc2c(Cl)cccc21 (centres unmarked)         1.11
1  COc1ccc2c(c1)C(NC(=O)NCCF)CC2 (centres unmarked)         0.81
2  O=C(NCCF)NC1CCCCc2ccc(F)cc21 (centres unmarked)         0.54

I = O=C(NCCF)NC1Cc2cccc(F)c2C1 (centres unmarked)
II = O=C(NCCF)NC1CCc2cc(Cl)ccc21 (centres unmarked)
III = O=C(NCCF)NC1CCCc2c(F)cccc21 (centres unmarked)
Q) Your job: order these 3 records by Alpha 2B IA (intrinsic activity), ascending. As an answer, provide the labels arranged in the order called for.
A) II, I, III

====

Target: alpha2A receptor (Homo sapiens)
Construct: expressed in transfected cells; host or cells: NIH-3T3
Experiment: Receptor Selection and Amplification Technology (RSAT) assay, alpha2A
Assay type: cell-based
Conditions: RSAT, NIH-3T3 cells cotransfected with receptor and Gq/i5; not active = not active at concentrations less than 10 micromolar; read-out: Alpha 2A EC50
pEC50: −log10 of the molar value.
METRIC NAME: pEC50

Sample answers from the record:
In [3]: df
Out[3]:
                                   molecule  measurement
0  Cc1cccc2c1CCC2NC(=O)NCCF (stereo not shown)         6.92
1  O=C(NCCF)NC1CCc2c(Br)cccc21 (stereo not shown)         7.19
2  COc1cccc2c1CCC2NC(=O)NCCF (stereo not shown)         5.68
3  COc1cccc2c1C(NC(=O)NCCF)CC2 (stereo not shown)         6.56
4  O=C(NCCF)NC1CCc2cccc(F)c21 (stereo not shown)         7.22

1 = CCC[C@@H]1CCCC[C@H]1NC(=O)NCCF
2 = O=C(NCCF)NC1CCc2cccc(Cl)c21 (stereo not shown)
3 = CC1CCC(NC(=O)NCCF)c2ccccc21 (stereo not shown)
Q) Please rank these molecules by pEC50 in descending order. # list labels per requested ordering
A) 2, 3, 1
(2: 7.54, 3: 6.48, 1: 5.83)

====

Target: alpha2A receptor (Homo sapiens)
Construct: expressed in transfected cells; host or cells: NIH-3T3
Sequence (P08913 1-465): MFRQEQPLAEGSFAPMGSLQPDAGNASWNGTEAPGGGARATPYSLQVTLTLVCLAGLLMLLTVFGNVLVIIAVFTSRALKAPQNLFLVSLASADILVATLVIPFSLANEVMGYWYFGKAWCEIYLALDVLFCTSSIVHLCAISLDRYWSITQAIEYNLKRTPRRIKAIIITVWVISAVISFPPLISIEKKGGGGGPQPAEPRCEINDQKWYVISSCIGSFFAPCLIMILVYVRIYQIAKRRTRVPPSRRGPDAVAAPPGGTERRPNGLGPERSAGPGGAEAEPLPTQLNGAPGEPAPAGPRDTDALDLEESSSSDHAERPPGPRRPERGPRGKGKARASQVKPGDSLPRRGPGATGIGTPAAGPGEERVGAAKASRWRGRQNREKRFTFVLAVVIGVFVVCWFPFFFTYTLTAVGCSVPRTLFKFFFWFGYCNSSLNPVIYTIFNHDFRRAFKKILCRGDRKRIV
Experiment: Receptor Selection and Amplification Technology (RSAT) assay, alpha2A
Type: cell-based
Conditions: RSAT, NIH-3T3 cells cotransfected with receptor and Gq/i5; not active = not active at concentrations less than 10 micromolar
METRIC NAME: Alpha 2A EC50

Please review the entries below; each comes with its answer.
>>> df
                                   molecule  measurement
0  Cc1ccc2c(c1)C(NC(=O)NCCF)CC2 (stereo not shown)   not active
1  CC1=C(C)C(NC(=O)NCCF)CCC1 (stereo not shown)   not active
2  O=C(NCCF)NC1CCc2ccccc21 (stereo not shown)   not active
3  Cc1ccc2c(c1)CC(NC(=O)NCCF)C2 (stereo not shown)   not active
4  COc1ccc2c(c1)CC(NC(=O)NCCF)C2 (stereo not shown)   not active

Then this molecule:
Q) Consider the molecule O=C(NCCF)NC1Cc2ccc(Cl)cc2C1 (stereo not shown) and give its recorded Alpha 2A EC50.
A) not active
